- assayNotes: in vitro
- statedConditions: monkey, CC50, n=1
readoutLabel: CC50

Entry under test: COc1cccc2[nH]c(C(=O)N[C@@H](CC(C)C)C(=O)N[C@@H](C[C@@H]3CCNC3=O)C(=O)CO)cc12 . Its CC50 was > 50 µM

* * *

- assayNotes: Rat pharmacokinetic study
- statedConditions: male, Wistar-Hannover, rat, plasma, iv, 2 mg/kg, Vdss, rat IV; PF-07304814 […] (n=2, range), PF-00835231 2mg/kg (n=3, ± SD)
readoutLabel: Vd

For COc1cccc2[nH]c(C(=O)N[C@@H](CC(C)C)C(=O)N[C@@H](C[C@@H]3CCNC3=O)C(=O)CO)cc12 the molecule record lists Vd as < 1.5 L/kg

* * *

- assayNotes: PBPK modeling (Simcyp) of DDI with itraconazole
- statedConditions: human
readoutLabel: CL renal (mL/min)
Just the number please, in mL/min, no unit attached.

The molecule identified as COc1cccc2[nH]c(C(=O)N[C@@H](CC(C)C)C(=O)N[C@@H](C[C@@H]3CCNC3=O)C(=O)CO)cc12 [PF-00835231] registered its CL renal at 50

* * *

- Tested on: CYP3A4/5
- assayNotes: Reversible CYP inhibition in human liver microsomes
- statedConditions: human, human liver microsomes, pH 7.4, probe midazolam (mdz), Percent of Control Activity, CYP 3A4/5 (mdz), 2.09 µM, Zero-Minute Preincubation
readoutLabel: activity at 2.09 µM (%)
Write it as a number; the unit % goes unstated.

Reported activity at 2.09 µM ( COc1cccc2[nH]c(C(=O)N[C@@H](CC(C)C)C(=O)N[C@@H](C[C@@H]3CCNC3=O)C(=O)CO)cc12 ) = 100

* * *

- assayNotes: Rat pharmacokinetic study
- statedConditions: male, Wistar-Hannover, rat, plasma, iv, CL, rat IV; PF-07304814 […] (n=2, range), PF-00835231 2mg/kg (n=3, ± SD)
Below, each of the molecules is paired with its reported clearance value.
Give just the numeric value; mL/min/kg need not be written.

structurestring=COc1cccc2[nH]c(C(=O)N[C@@H](CC(C)C)C(=O)N[C@@H](C[C@@H]3CCNC3=O)C(=O)CO)cc12 reportedmeasurement=27

# next molecule below
Lookup result for COc1cccc2[nH]c(C(=O)N[C@@H](CC(C)C)C(=O)N[C@@H](C[C@@H]3CCNC3=O)C(=O)COP(=O)(O)O)cc12 ; measured clearance: 194

* * *

- subjectOfTest: CYP2C9 (Homo sapiens, UniProt P11712)
- Sequence (P11712 whole entry): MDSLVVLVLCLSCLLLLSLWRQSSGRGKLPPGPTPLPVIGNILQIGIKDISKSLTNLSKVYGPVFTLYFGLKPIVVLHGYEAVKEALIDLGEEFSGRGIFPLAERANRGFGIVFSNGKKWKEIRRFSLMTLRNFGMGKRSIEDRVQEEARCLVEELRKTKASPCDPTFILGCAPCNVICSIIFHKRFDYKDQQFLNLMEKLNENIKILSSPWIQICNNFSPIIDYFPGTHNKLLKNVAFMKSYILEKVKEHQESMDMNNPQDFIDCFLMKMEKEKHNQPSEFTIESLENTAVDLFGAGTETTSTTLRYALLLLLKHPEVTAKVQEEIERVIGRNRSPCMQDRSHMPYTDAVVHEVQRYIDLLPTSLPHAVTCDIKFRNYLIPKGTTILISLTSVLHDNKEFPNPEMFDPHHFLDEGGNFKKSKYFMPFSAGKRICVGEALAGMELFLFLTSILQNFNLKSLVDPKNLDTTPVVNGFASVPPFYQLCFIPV
- assayNotes: Reversible CYP inhibition in human liver microsomes
- statedConditions: human, microsomes, pH 7.4, Percent of Control Activity, CYP 2C9, 43.8 µM, 30-Minute Preincubation
readoutLabel: activity at 43.8 µM
Field note: include the unit after the figure.

activity at 43.8 µM reported for this compound COc1cccc2[nH]c(C(=O)N[C@@H](CC(C)C)C(=O)N[C@@H](C[C@@H]3CCNC3=O)C(=O)CO)cc12 : 101%

* * *

- subjectOfTest: CYP1A2 (Homo sapiens, UniProt P05177)
- Sequence (P05177 whole entry): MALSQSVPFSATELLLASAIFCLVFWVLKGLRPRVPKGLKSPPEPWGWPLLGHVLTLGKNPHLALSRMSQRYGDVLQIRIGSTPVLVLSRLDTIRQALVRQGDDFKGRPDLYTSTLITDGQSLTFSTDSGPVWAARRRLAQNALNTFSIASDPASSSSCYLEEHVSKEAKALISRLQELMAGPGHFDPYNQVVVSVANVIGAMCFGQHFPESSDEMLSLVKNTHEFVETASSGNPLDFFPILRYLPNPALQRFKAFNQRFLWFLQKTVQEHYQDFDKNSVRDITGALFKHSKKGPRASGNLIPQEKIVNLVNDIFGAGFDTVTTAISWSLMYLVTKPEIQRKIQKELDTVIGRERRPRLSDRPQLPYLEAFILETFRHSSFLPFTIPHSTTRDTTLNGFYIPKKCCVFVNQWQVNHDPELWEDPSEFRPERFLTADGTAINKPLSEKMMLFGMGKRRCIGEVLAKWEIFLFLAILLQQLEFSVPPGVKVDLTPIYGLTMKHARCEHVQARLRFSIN
- assayNotes: Reversible CYP inhibition in human liver microsomes
- statedConditions: human, microsomes, pH 7.4, Percent of Control Activity, CYP 1A2, 43.8 µM, Zero-Minute Preincubation
readoutLabel: activity at 43.8 µM (%)
Value expressed in %; do not type the unit.

get_value(item= COc1cccc2[nH]c(C(=O)N[C@@H](CC(C)C)C(=O)N[C@@H](C[C@@H]3CCNC3=O)C(=O)CO)cc12 [PF-00835231] , readout=activity at 43.8 µM) returns 94.2

* * *

- assayNotes: Monkey pharmacokinetic study
- statedConditions: male, Cynomolgus, cynomolgus monkey, plasma, iv, 1 mg/kg, Vdss, monkey, PF-00835231 active dosed 1mg/kg intravenous (crossover), individual monkeys
readoutLabel: Vd (L/kg)
Provide only the numeric value, understood in L/kg.

// recorded Vd for COc1cccc2[nH]c(C(=O)N[C@@H](CC(C)C)C(=O)N[C@@H](C[C@@H]3CCNC3=O)C(=O)CO)cc12 : 1.34

* * *

- subjectOfTest: OCT2 (Homo sapiens)
- Sequence (O15244 1-555): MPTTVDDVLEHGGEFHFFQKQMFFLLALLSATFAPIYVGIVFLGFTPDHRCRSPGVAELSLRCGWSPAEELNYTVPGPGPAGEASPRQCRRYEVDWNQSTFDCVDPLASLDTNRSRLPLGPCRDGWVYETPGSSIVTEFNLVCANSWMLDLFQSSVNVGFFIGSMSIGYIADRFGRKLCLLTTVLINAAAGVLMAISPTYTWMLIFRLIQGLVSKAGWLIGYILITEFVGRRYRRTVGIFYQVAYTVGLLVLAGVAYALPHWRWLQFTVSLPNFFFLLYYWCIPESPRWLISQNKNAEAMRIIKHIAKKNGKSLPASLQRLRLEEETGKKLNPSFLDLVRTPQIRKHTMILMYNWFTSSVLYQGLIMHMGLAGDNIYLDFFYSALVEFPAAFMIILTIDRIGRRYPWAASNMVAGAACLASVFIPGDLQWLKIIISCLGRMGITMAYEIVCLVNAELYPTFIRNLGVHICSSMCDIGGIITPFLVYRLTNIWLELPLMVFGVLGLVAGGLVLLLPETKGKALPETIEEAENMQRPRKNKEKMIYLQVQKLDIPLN
- assayNotes: Transporter inhibition using transfected HEK293 cells
readoutLabel: IC50

Fill in: OCT2 (Homo sapiens) IC50 for COc1cccc2[nH]c(C(=O)N[C@@H](CC(C)C)C(=O)N[C@@H](C[C@@H]3CCNC3=O)C(=O)CO)cc12 = > 300 µM

* * *

- assayNotes: Plasma protein binding by equilibrium dialysis
- statedConditions: human, plasma, pH 7.4, Measured plasma fu / Human plasma fu, human plasma
Measured fraction unbound at 6 h, listed per entry.
Write the value as a bare number.

compound="COc1cccc2[nH]c(C(=O)N[C@@H](CC(C)C)C(=O)N[C@@H](C[C@@H]3CCNC3=O)C(=O)COP(=O)(O)O)cc12 [PF-07304814]" readoutlabel="fraction unbound at 6 h" reportedmeasurement=0.184

// below: fraction unbound at 6 h requested for another compound
Consider COc1cccc2[nH]c(C(=O)N[C@@H](CC(C)C)C(=O)N[C@@H](C[C@@H]3CCNC3=O)C(=O)CO)cc12 [PF-00835231] . Its measured fraction unbound at 6 h is 0.449

* * *

- assayNotes: Rat pharmacokinetic study
- statedConditions: male, Wistar-Hannover, rat, plasma, iv, 2 mg/kg, Vdss, Mean, 2mg/kg intravenous
readoutLabel: Vd (L/kg)
Use L/kg as the unit, but write only the number.

Lab book: Vd of COc1cccc2[nH]c(C(=O)N[C@@H](CC(C)C)C(=O)N[C@@H](C[C@@H]3CCNC3=O)C(=O)CO)cc12 noted as 0.746

* * *

- subjectOfTest: OATP1B1 (Homo sapiens, UniProt Q9Y6L6)
- Sequence (Q9Y6L6 whole entry): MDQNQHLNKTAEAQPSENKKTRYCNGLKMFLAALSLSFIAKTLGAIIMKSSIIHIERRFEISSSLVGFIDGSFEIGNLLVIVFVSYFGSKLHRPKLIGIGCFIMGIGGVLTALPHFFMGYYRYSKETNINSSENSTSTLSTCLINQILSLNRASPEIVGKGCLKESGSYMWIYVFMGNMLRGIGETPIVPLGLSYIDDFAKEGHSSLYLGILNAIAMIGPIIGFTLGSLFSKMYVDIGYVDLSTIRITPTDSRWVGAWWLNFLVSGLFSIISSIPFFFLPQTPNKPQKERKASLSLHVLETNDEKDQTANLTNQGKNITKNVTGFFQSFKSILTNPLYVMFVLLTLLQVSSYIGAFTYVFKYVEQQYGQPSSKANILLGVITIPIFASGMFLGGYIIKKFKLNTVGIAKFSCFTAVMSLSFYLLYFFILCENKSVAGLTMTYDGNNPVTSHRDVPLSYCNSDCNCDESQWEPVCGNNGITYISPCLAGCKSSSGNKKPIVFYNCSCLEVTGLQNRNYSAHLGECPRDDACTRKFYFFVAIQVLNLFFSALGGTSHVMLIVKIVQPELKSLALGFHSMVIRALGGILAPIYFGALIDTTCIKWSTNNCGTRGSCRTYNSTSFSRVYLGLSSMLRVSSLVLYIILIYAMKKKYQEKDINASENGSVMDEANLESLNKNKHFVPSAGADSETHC
- assayNotes: Transporter inhibition using transfected HEK293 cells
- statedConditions: human, HEK293 cells stably transfected with OATP1B1, pH 7.4, probe rosuvastatin (0.5 µM)
readoutLabel: IC50

Reported IC50 ( COc1cccc2[nH]c(C(=O)N[C@@H](CC(C)C)C(=O)N[C@@H](C[C@@H]3CCNC3=O)C(=O)CO)cc12 [PF-00835231] ) = > 20 µM

* * *

- subjectOfTest: CYP1A2 (Homo sapiens, UniProt P05177)
- assayNotes: Reversible CYP inhibition in human liver microsomes
- statedConditions: human, microsomes, pH 7.4, Percent of Control Activity, CYP 1A2, 4.48 µM, Zero-Minute Preincubation
readoutLabel: activity at 4.48 µM (%)
Answer in %, number only, no unit symbol.

// activity at 4.48 µM lookup, molecule = COc1cccc2[nH]c(C(=O)N[C@@H](CC(C)C)C(=O)N[C@@H](C[C@@H]3CCNC3=O)C(=O)CO)cc12 , result: 99.3

* * *

- subjectOfTest: HKU1-CoV 3CL^pro (Human coronavirus HKU1, UniProt P0C6X2)
- Sequence (P0C6X2 3335-3637): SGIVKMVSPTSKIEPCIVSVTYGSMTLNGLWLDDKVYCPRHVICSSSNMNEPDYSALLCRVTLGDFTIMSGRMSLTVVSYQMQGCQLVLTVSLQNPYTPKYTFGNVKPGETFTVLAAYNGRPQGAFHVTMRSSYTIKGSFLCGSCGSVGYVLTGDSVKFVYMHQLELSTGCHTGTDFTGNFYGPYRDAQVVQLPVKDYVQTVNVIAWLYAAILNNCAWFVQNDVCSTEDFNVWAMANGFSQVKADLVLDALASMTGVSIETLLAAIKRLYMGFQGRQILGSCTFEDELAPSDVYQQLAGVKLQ
readoutLabel: Ki (pM)
Provide the reading as a plain figure in pM.

Bench note, HKU1-CoV 3CL^pro (Human coronavirus HKU1, UniProt P0C6X2): COc1cccc2[nH]c(C(=O)N[C@@H](CC(C)C)C(=O)N[C@@H](C[C@@H]3CCNC3=O)C(=O)CO)cc12 , Ki reads 850

* * *

- assayNotes: Plasma protein binding by equilibrium dialysis
- statedConditions: both, Cynomologous, cynomolgus monkey, plasma, pH 7.4, Individual fraction unbound, monkey plasma, Cynomologous, male and female, 3.44 uM, Day 1
readoutLabel: fraction unbound at 6 h, 3.44 uM
Quick one: just the number, no unit, thanks!

Looking up COc1cccc2[nH]c(C(=O)N[C@@H](CC(C)C)C(=O)N[C@@H](C[C@@H]3CCNC3=O)C(=O)COP(=O)(O)O)cc12 [PF-07304814] , I see its fraction unbound at 6 h, 3.44 uM listed as 0.388

* * *

- subjectOfTest: CYP1A2 (Homo sapiens, UniProt P05177)
- assayNotes: Reversible CYP inhibition in human liver microsomes
- statedConditions: human, microsomes, pH 7.4, Percent of Control Activity, CYP 1A2, 39.8 µM, 30-Minute Preincubation
readoutLabel: activity at 39.8 µM (%)
Quick note: give the figure in %, leave out the unit.

Form: compound = COc1cccc2[nH]c(C(=O)N[C@@H](CC(C)C)C(=O)N[C@@H](C[C@@H]3CCNC3=O)C(=O)COP(=O)(O)O)cc12 [PF-07304814] ; activity at 39.8 µM = 102
